This collection of values is drawn from ChEMBL document CHEMBL3988442.

# measuredOn: Histidine--tRNA ligase (Leishmania infantum) (UniProt A4I591)
# Sequence (A4I591 as listed by the source): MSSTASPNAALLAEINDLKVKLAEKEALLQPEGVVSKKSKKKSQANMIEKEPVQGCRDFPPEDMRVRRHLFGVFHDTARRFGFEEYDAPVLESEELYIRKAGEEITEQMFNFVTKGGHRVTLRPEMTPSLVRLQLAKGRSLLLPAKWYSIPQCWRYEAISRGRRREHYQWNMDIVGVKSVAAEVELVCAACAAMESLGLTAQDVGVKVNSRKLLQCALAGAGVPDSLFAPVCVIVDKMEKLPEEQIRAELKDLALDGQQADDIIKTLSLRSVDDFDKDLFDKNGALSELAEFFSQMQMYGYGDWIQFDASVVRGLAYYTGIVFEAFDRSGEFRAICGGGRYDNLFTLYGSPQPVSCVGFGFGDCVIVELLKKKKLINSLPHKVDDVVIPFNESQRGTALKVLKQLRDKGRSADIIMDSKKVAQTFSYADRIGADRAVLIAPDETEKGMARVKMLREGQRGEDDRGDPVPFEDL
# assayText: Leishmania infantum Histidine tRNA synthetase (LdHisRS)
# Format: functional
# Set-up: scale not given: in the data most compounds retested in dose-response had high values
# details: 30 µM
Hit rate of the full screen: of about 69,000 compounds, about 420 (0.61%) showed an effect of 50% or more. The entries come from a sample that favours strong results as a whole.
parameter: Percent Effect (%)
Answers are plain numbers, in %.

Example entries begin here.
[
  {
    "compound": "COC[C@@]12CCC[C@@H]1CN(C(=O)COC1CCCC1)C2",
    "Percent Effect [%]": 0
  },
  {
    "compound": "Cc1noc([C@@]23CCO[C@@H]2CCN(C(=O)CCC(C)C)C3)n1",
    "Percent Effect [%]": 5.56
  },
  {
    "compound": "Cc1nn(C)c(C)c1CCn1cncc1-c1ccc2c(c1)CC(C)N2C (centres undefined)",
    "Percent Effect [%]": 53.7
  },
  {
    "compound": "Clc1ccc(C2(CNC3=NCCN3)CC2)cc1",
    "Percent Effect [%]": 18.6
  },
  {
    "compound": "CCOC1CCN(C(=O)NCc2ccc(CN3CCOCC3)cc2)CC1",
    "Percent Effect [%]": 13.5
  }
]

Answer for every listed entry: what is its Percent Effect? The entries follow.
1. CN(CCN1CCOCC1)C(=O)CCCc1ccccc1
2. O=S(=O)(N1CCCC1)N1CC[C@H](c2ccccc2)[C@H]2NCCCC[C@H]21
3. CC(C)c1nnc(NC(=O)N2CCN(C)CC2c2ccccc2)s1 (centres undefined)
4. O=C(NCc1cccs1)[C@H]1CC[C@@H]2[C@@H](CCN2Cc2ccoc2)O1
5. Cc1c(CN2CCCCC2)c(O)n(CCO)c(=O)c1C#N
6. CCOC1CCN(C(=O)Nc2ccc(=O)n(C)c2)CC1
7. CCC1=NOC(CNCc2cnc(-c3ccccc3C)s2)C1 (centres undefined)
8. COc1cc(N2CC[C@@H]3O[C@@H](c4ccncn4)C[C@H]3C2)ncn1

Key:
[11.4, 26.3, 4.17, 12.5, 55.9, 114, 61.7, 14.5]

* * *

Please respond with reported Percent Effect for every item in the list.
# measuredOn: Histidine--tRNA ligase (Leishmania infantum) (UniProt A4I591)
# assayText: Leishmania infantum Histidine tRNA synthetase (LdHisRS)
# Type: functional
# Design: scale not given: in the data most compounds retested in dose-response had high values
# details: 30 µM
The whole screen tested about 69,000 compounds, of which about 420 (0.61%) showed an effect of 50% or more. For the sample, strong results were picked, then their nearest neighbours and some compounds at random.

Example entries begin here.
[
  {
    "compound": "O=S1(=O)C[C@@H]2[C@H](C1)N(S(=O)(=O)N1CCCC1)CCN2Cc1ccccc1",
    "Percent Effect": "19.2%"
  },
  {
    "compound": "CCN(Cc1ccc(O)c(C(=O)O)c1)CC1CCCO1 (stereo not given)",
    "Percent Effect": "16.4%"
  }
]

Answer for every listed entry: what is its Percent Effect? The entries follow.
1. CCc1nccn1-c1cccc(C2CCCN(C3CCCCC3)C2)n1 (stereo not given)
2. CCc1ccc(NC(=O)N2C[C@H]3CC[C@@]4(N=C(C)N(C)C4=O)[C@H]3C2)cc1

Key:
42%
24.7%

Answer for every listed entry: what is its Percent Effect? The entries follow.
1. COCc1nc(CNc2cccc(-c3nc(C)c(C)o3)c2)cs1
2. Cn1cc(N2C(=O)C[C@@H]3[C@@H]2CCN3C(=O)c2ccco2)cn1
3. O=C(c1ccc2nccnc2c1)N1CCN(CCO)[C@@H]2CS(=O)(=O)C[C@@H]21
4. COCCN1CCN(C(=O)c2ccc(COC)o2)[C@H]2CS(=O)(=O)C[C@H]21
5. Cc1noc(CN2C[C@H]3CC[C@@H]2CN(C2Cc4ccccc4C2)C3)n1

Key:
0%
16%
3.97%
21.3%
20.4%

Answer for every listed entry: what is its Percent Effect? The entries follow.
1. CC(C)N(C(=O)Cn1c(-c2ccco2)cc2cccnc21)C(C)C
2. CSCC(=O)N1C[C@H]2CC[C@@H]1CN(Cc1ccccc1)C2
3. NC(=O)c1ccc(N2CCCCC2)c(NC(=O)c2ccc(F)cc2Cl)c1
4. c1ccc(-n2cc(CNCC3CCCN3c3cccnn3)cn2)cc1 (stereo not given)
5. c1ccc(Cn2ccnc2CNCC2CCCN2c2cccnn2)cc1 (stereo not given)
6. COCCNC(=O)Cn1c(-c2ccco2)cc2cccnc21
7. CC(=O)N1CC[C@H]2CC(=O)N(C3CC3)CC[C@H]2C1
8. Cc1nccn1-c1cccc(C2CCCN(C3CCCCC3)C2)n1 (stereo not given)

Key:
1: 20.1%; 2: 26.9%; 3: 65.6%; 4: 21.9%; 5: 5.36%; 6: 14.8%; 7: 22.2%; 8: 55.6%

Answer for every listed entry: what is its Percent Effect? The entries follow.
1. COc1cccc(C(=O)N2C[C@@H](c3ccccc3)[C@@H]3NCCCC[C@@H]32)c1
2. c1ccc(-n2ccc(CNCC3CCCN3c3cccnn3)n2)cc1 (stereo not given)
3. CCN1CC[C@@]2(C(=O)N(C)C)CCN(C(=O)NC(C)C)CC[C@@H]12
4. Cn1cccc1C(=O)N1CC[C@H]2[C@H]1CCN2CC1CCOCC1
5. COCc1nc2cc(NCc3nc(C)cs3)ccc2o1
6. CCN(Cc1ccc2cccc(O)c2n1)CC1CCCO1 (stereo not given)
7. O=C(c1ccco1)N1C[C@@H]2OCCN(CCN3CCCC3)[C@@H]2C1

Key:
1. 10.3%
2. 25.4%
3. 15.5%
4. 24.6%
5. 106%
6. 74%
7. 6.01%
